B1: SEPHS2 (parent)
chain: KASGRFGLLQGTSAETSGGLLICL

variants of: B1; test: protein stability index of a GFP-peptide fusion (GPS, HEK-293T) (PSI 1-6); higher = more stable; settings: c terminus: a fixed tail appended;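 also: lentivirally expressed fusions sorted by FACS into six bins by GFP to DsRed ratio, PSI derived from sequencing read proportions per bin multiplied by bin number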

{"columns": ["Biosequence", "protein stability index"],
 "data": [
  ["KASGRFGLLQGTDAETSGGLLICL", 2.01],
  ["KASGRFGLLQGTSAETSGGKLICL", 1.95],
  ["KASGRFGLLQGTSAETSGGLLIPL", 2.02],
  ["KASGRFGLLQGTSAETSGGLLIDL", 2.02],
  ["KASGRFGLLQGTSAETSGGLLCCL", 2.02]
]}
